Test system: 186277-243-T-J2-PDC complex spheroids, viability
Test: Anticancer human tumor 186277-243-T-J2-PDC patient-derived colon adenocarcinoma cell line growth inhibition [RAS]
Conditions: curve of first compound; second compound 0.00316 µM
The entries below come with measured IC50 values attached.

Here is how some compounds turned out for IC50.
State the recorded IC50 for this entry: NC1c2ccccc2OC12CCN(c1cnc3c(N4CCCc5ncccc54)n[nH]c3n1)CC2 (centres undefined) + C=CC(=O)N1CCN(c2nc(OCC3CCCN3C)nc3c(F)c(-c4nc(N)cc(C)c4C(F)(F)F)c(Cl)cc23)C(C)C1
> 10 µM

What does the record list as IC50 for C[C@@H](NC(=O)c1ncnc(N)c1Cl)c1ncc(C(=O)Nc2cc(C(F)(F)F)c(Cl)cn2)s1 + C=CC(=O)N1CCN(c2nc(OCC3CCCN3C)nc3c(F)c(-c4nc(N)cc(C)c4C(F)(F)F)c(Cl)cc23)C(C)C1 ?
> 10 µM

# get_value(readout='IC50', item= C=CC(=O)Nc1cc(Nc2nccc(-c3cn(C)c4ccccc34)n2)c(OC)cc1N(C)CCN(C)C + C=CC(=O)N1CCN(c2nc(OCC3CCCN3C)nc3c(F)c(-c4nc(N)cc(C)c4C(F)(F)F)c(Cl)cc23)C(C)C1 )
> 1 µM

New cases:
Which IC50 is listed for CC1(C)CCC(Nc2ncc(C(F)(F)F)c(-c3c[nH]c4c(P(C)(C)=O)c(C#N)ccc34)n2)CN1 (centres undefined) + C=CC(=O)N1CCN(c2nc(OCC3CCCN3C)nc3c(F)c(-c4nc(N)cc(C)c4C(F)(F)F)c(Cl)cc23)C(C)C1 ?
> 0.3 µM

* * *

System: 186277-243-T-J2-PDC complex spheroids, viability
Experiment: Anticancer human tumor 186277-243-T-J2-PDC cell line growth inhibition [RAS];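 note: spheroids exposed to compounds for 7 days before viability read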
Settings: second compound 1 µM; first compound 0.316 µM; stronger effect = lower value
Description: RAS pathway inhibitors in Combinations in Complex Spheroids A high-throughput screen of multi-cell type tumor spheroids was designed to identify active combinations of RAS pathway inhibitors and targeted small molecules. Complex spheroids include a stromal component modeled by human endothelial cells (HUVEC) and fibroblasts modeled by human mesenchymal stem cells (MSCs). […] Compounds. […] If the clinical Cmax for an agent had not been determined, the highest concentration tested was 10 microM. […]
ENDPOINT_LABEL: viability, T/C (%)
The reply should be a number in %, with the unit left off.

So what's the measured viability, T/C for this one? CCC(CC)c1cc(NC2CCC(N)C2)n2nccc2n1 (stereo not drawn) + C#Cc1c(F)ccc2cc(O)cc(-c3ncc4c(N5CC6CCC(C5)N6)nc(OCC56CCCN5CC(F)C6)nc4c3F)c12
19.9

***
// returns reported viability, T/C for input O=C(c1ccc(F)c(F)c1Nc1ccc(I)cc1F)N1CC(O)([C@@H]2CCCCN2)C1 + C=CC(=O)N1CCN(c2nc(OCC3CCCN3C)nc3c(F)c(-c4nc(N)cc(C)c4C(F)(F)F)c(Cl)cc23)C(C)C1
13.2

Need viability, T/C of CC(C)NCC(C(=O)N1CCN(c2ncnc3c2C(C)CC3O)CC1)c1ccc(Cl)cc1 (stereo not drawn) + C#Cc1c(F)ccc2cc(O)cc(-c3ncc4c(N5CC6CCC(C5)N6)nc(OCC56CCCN5CC(F)C6)nc4c3F)c12 , thanks.
10.1
